Every entry's value here was drawn from ChEMBL document CHEMBL2177093.

Item-by-item account of fraction unbound
# EXPERIMENT_NOTES: Plasma protein binding in CD-1 mouse
# Assay type: ADME, cell-free
# CONDITION_DETAILS: read-out: PPB (converted)
Lab note: record just the number, no unit beside it.

Which fraction unbound is reported for this compound? COC(C)(C)c1cc2nc(-c3cnc(N)nc3)nc(N3CCOCC3)c2s1
0.102

Which fraction unbound is reported for this compound? CC(C)(O)c1cc2nc(-c3cnc(N)nc3)nc(N3CCOCC3)c2s1
0.198

====

# EXPERIMENT_NOTES: Drug level in CD-1 mouse brain at 25 mg/kg, po administered as single dose measured after 1 hr post dose
# Assay type: ADME, organism-based
# Parameters: dose 25 mg/kg, route oral
# CONDITION_DETAILS: read-out: Drug uptake
READOUT_KIND: concentration at 1 h (nM)
Reply numerically in nM, unit not repeated.

Which concentration at 1 h is reported for this compound? COC(C)(C)c1cc2nc(-c3cnc(N)nc3)nc(N3CCOCC3)c2s1
2140

====

# TARGET_SYSTEM: Phosphatidylinositol 4,5-bisphosphate 3-kinase catalytic subunit alpha isoform (Homo sapiens, UniProt P42336)
# Sequence (P42336 whole entry, canonical isoform): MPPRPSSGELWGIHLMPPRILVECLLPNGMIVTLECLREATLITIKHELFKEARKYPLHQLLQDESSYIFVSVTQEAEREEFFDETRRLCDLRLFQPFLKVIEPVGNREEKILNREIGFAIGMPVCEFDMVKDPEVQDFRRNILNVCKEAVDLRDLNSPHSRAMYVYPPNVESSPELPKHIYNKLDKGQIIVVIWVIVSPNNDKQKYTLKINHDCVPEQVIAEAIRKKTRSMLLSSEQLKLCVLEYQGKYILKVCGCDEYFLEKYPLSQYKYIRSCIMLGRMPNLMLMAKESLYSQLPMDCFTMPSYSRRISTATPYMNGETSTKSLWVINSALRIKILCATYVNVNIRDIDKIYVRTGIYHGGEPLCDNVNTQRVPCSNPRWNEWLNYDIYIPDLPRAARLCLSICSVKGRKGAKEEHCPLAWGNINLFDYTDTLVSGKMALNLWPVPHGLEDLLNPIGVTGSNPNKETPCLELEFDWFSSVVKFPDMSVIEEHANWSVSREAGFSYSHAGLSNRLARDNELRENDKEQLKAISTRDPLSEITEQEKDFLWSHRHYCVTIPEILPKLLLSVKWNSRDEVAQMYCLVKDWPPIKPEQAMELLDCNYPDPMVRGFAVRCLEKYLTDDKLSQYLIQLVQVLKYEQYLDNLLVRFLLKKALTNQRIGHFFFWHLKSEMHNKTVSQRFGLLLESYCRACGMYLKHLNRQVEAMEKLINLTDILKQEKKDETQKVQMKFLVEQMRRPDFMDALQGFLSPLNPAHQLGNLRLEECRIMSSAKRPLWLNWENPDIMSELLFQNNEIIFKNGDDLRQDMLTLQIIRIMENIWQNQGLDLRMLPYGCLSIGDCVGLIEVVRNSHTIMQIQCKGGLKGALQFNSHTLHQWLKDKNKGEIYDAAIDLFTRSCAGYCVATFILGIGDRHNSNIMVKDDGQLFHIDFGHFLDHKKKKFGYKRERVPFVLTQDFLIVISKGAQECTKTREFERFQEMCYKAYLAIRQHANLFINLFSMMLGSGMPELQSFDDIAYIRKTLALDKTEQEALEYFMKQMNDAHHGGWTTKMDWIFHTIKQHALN
# EXPERIMENT_NOTES: Inhibition of PI3Kalpha assessed as reduction in PIP3 formation after 30 mins by fluorescence polarization assay
Item-by-item account of IC50
Reply numerically in nM, unit not repeated.

[
  {
    "SMILES_DATA": "c1cc(-c2nc(N3CCOCC3)c3sccc3n2)c2cn[nH]c2c1",
    "SCALE_UNIT": "nM",
    "IC50": 36
  }
]

Which IC50 is reported for this molecule? Cc1csc2c(N3CCOCC3)nc(-c3cnc(N)nc3)nc12
9

====

# EXPERIMENT_NOTES: Plasma protein binding in CD-1 mouse
# Assay type: ADME, cell-free
# CONDITION_DETAILS: read-out: PPB (converted)
READOUT_KIND: fraction unbound

[
  {
    "MOLECULE": "CC1(C)OCCc2c1sc1c(N3CCOCC3)nc(-c3cnc(N)nc3)nc21",
    "RECORDED_MEASUREMENT": 0.006
  },
  {
    "MOLECULE": "COC1(c2sc3c(N4CCOCC4)nc(-c4cnc(N)nc4)nc3c2C)COC1",
    "RECORDED_MEASUREMENT": 0.15
  }
]

Which fraction unbound is reported for this molecule? CC1(C)COC1c1cc2nc(-c3cnc(N)nc3)nc(N3CCOCC3)c2s1 (stereo not drawn)
0.087
